Attribute: melting point

Compound: Oc1ccc2c(c1)OCCCO2
melting point: 97 to 99 °C
--
Compound: CC1CN(S(=O)(=O)c2ccc(NC(=O)CCl)cc2)CC(C)O1 (centres undefined)
melting point: 110 to 112 °C
--
Compound: Clc1ccc2nccnc2n1
melting point: 148 to 150 °C
--
Compound: Cc1n[nH]c(C)c1C=O
melting point: 85 to 87 °C
--
Compound: N#Cc1ccccc1CN1CCOC1=O
melting point: 91 to 93 °C
--
Compound: CCC(=O)C(N)=O
melting point: 94 to 96 °C
--
Compound: O=C(O)CCCS(=O)(=O)c1ccc(Br)cc1
melting point: 117 to 119 °C
--
Compound: CN(C)C(=O)c1ccc(F)nc1
melting point: 44 to 46 °C
--
Compound: CCNc1ccc(S(=O)(=O)N2CCOCC2)cc1N
melting point: 188 to 190 °C
--
Compound: Cn1c(=O)oc2cc(C(=O)CCl)ccc21
melting point: 159 to 161 °C
--
Compound: CCCS(=O)(=O)NC(C(=O)OCC)C(=O)OCC
melting point: 40 to 42 °C
--
Compound: O=c1[nH]c(CCl)nc2scc(-c3ccccc3Cl)c12
melting point: 167 to 169 °C
--
Compound: CC(C)(C)OC(=O)CNc1ccc2c(c1)OCO2
melting point: 70 to 72 °C
--
Compound: COc1cccc(CNc2ccc3[nH]c(=O)[nH]c3c2)c1
melting point: 190 to 192 °C

----------
melting point for assorted molecules

Molecule: COc1ccnc(NCC(=O)O)n1
melting point: 190 to 192 °C
--
Molecule: Cc1cccnc1NC1CCCCC1
melting point: 81 to 83 °C
--
Molecule: CC1(c2ccc3c(c2)OCCCO3)NC(=O)NC1=O (centres undefined)
melting point: 192 to 194 °C
--
Molecule: O=C(O)C=Cc1cncc(F)c1
melting point: 234 to 236 °C
--
Molecule: O=C(O)/C=C/c1csc2ccccc12
melting point: 225 to 227 °C
--
Molecule: O=C(O)c1c(O)cc(=O)n2c1CCC2
melting point: 236 to 238 °C
--
Molecule: c1ccc(-c2nnn[nH]2)nc1
melting point: 214 to 216 °C
--
Molecule: Clc1nc(-c2ccccc2)cs1
melting point: 55 to 57 °C
--
Molecule: COc1ccc(C(=O)c2cccc3ccccc23)cc1
melting point: 95 to 97 °C
--
Molecule: NC(=O)NCC(F)(F)F
melting point: 110 to 112 °C
--
Molecule: O=C(O)c1ccc(F)c(I)c1
melting point: 169 to 171 °C
--
Molecule: CC(=O)c1cccc(-c2ccncc2)c1
melting point: 64 to 66 °C
--
Molecule: O=C(O)c1ccc(Cl)c(S(=O)(=O)NC2CC2)c1
melting point: 221 to 224 °C
--
Molecule: CS(=O)(=O)Nc1ccccc1I
melting point: 96 to 98 °C

----------
Compound: CC(C)(C)OC(=O)Nc1ccc(C(=O)O)c(Cl)c1
melting point: 169 to 171 °C
//
Compound: O=[N+]([O-])c1ccn(CCBr)n1
melting point: 50 to 52 °C
//
Compound: O=C1CCc2cc(S(=O)(=O)Cl)ccc2N1
melting point: 205 to 207 °C

----------
# Lookup of reported melting point keyed by entry

Compound: Clc1nccc(OCc2ccccc2)n1
melting point: 49 to 51 °C

Compound: O=C(O)CN(Cc1ccco1)c1cccc(Cl)c1
melting point: 115 to 117 °C

Compound: O=c1ccccn1Cc1ccc(Cl)c([N+](=O)[O-])c1
melting point: 92 to 94 °C

Compound: Sc1nnc(CCc2ccccc2)o1
melting point: 92 to 94 °C

Compound: OCc1ccnc(-n2ccnc2)c1
melting point: 155 to 157 °C

Compound: Cc1nn(C)c2nc(Cl)c(C=O)cc12
melting point: 182 to 184 °C

Compound: COCC(C)n1c(SCC(=O)O)nnc1-c1ccccc1 (stereo not given)
melting point: 139 to 141 °C

Compound: Cc1cccc(-n2ncc(C(=O)O)n2)c1
melting point: 131 to 133 °C

Compound: COC(=O)C(C)Nc1ccc([N+](=O)[O-])cc1 (stereo not given)
melting point: 99 to 101 °C

Compound: Cc1nnc(C2Cc3ccccc3CN2)o1 (stereo not given)
melting point: 65 to 67 °C

Compound: Cn1cnc([N+](=O)[O-])c1Br
melting point: 177 to 179 °C

Compound: COC(=O)C(=O)NN
melting point: 115 to 117 °C

Compound: COc1ccc(Br)cc1NCc1ccncc1
melting point: 89 to 91 °C

Compound: CCOC(=O)/C(C#N)=C(\N)C(Cl)(Cl)Cl
melting point: 94 to 96 °C

Compound: Cc1ccc(Oc2ccc(O)cc2)cc1
melting point: 71 to 73 °C

Compound: OC(c1cccnc1)C(F)(F)F (stereo not given)
melting point: 64 to 66 °C

Compound: Cn1cnc(-c2ccccc2)c1N
melting point: 159 to 161 °C

Compound: O=C(O)c1ccc(Oc2ccc(F)cc2)cc1
melting point: 170 to 174 °C

Compound: NCc1nnc2n1CCCC2C(F)(F)F (stereo not given)
melting point: 81 to 83 °C

Compound: FC(F)Oc1ccccc1-c1noc(CCl)n1
melting point: < 17 °C

Compound: Cn1c(C2CC2)nc2cnccc21
melting point: 100 to 102 °C

Compound: O=C(O)c1cc(-c2cccs2)nc2onc(C3CC3)c12
melting point: 236 to 238 °C

Compound: CC1CC(C(=O)O)CCC1=O (stereo not given)
melting point: 69 to 71 °C

Compound: O=C(O)CNC1CCCC1
melting point: 210 to 212 °C

Compound: Nc1ccc(CN2CCN(Cc3ccccc3)CC2)cc1
melting point: 96 to 98 °C

Compound: CC(C)c1ccc(/C=C(/C(=O)O)c2cccs2)cc1
melting point: 250 to 252 °C

Compound: Cc1[nH]c(C(=O)O)c(C)c1S(N)(=O)=O
melting point: 214 to 216 °C

Compound: COc1ccc(S(=O)(=O)CC(C)C(=O)O)cc1 (stereo not given)
melting point: 116 to 118 °C

Compound: Nc1nc(-c2ccc3c(c2)OCCO3)n[nH]1
melting point: 178 to 180 °C

Compound: CC(C)(C)c1nc2ccc(S(=O)(=O)Cl)cc2s1
melting point: 122 to 124 °C

Compound: Cc1c(C(=O)O)cnn1Cc1ccccc1
melting point: 172 to 174 °C

Compound: CCCCN1C(=O)CCC(C(=O)O)C1c1ccccc1OC (stereo not given)
melting point: 288 to 290 °C

Compound: Cc1c(C(=O)O)sc2nc(Cc3ccccc3)[nH]c(=O)c12
melting point: 342 to 344 °C

Compound: O=C1c2ccncc2C(=O)N1CCO
melting point: 106 to 108 °C

Compound: CCN(C(=O)CCl)c1nc2ccccc2s1
melting point: 233 to 235 °C

Compound: O=C(O)c1ccc(Nc2ccccc2)c([N+](=O)[O-])c1
melting point: 250 to 252 °C

Compound: Cc1c(Cl)cccc1Nc1nnc(S)s1
melting point: 189 to 191 °C

Compound: CCOC(=O)c1cnn(CCC#N)c1N
melting point: 109 to 111 °C

Compound: Nc1cc(S(N)(=O)=O)ccc1O
melting point: 199 to 201 °C

Compound: Nc1nnc(Cc2ccccc2F)o1
melting point: 167 to 169 °C

----------
Overview of reported melting point across a group of molecules:
Measured Attribute: melting point

Molecule: CC(Cl)C(=O)NC12CC3CC(CC(C3)C1)C2 (configuration not stated)
Measured Attribute: melting point
Endpoint Result: 103 to 105 °C

Molecule: Nc1cc([N+](=O)[O-])ccn1
Measured Attribute: melting point
Endpoint Result: 96 to 98 °C

Molecule: FC(F)(F)c1ccc(-n2cccn2)nc1
Measured Attribute: melting point
Endpoint Result: 66 to 68 °C

Molecule: Cc1ccc(-c2csc3ncnc(Cl)c23)cc1C
Measured Attribute: melting point
Endpoint Result: 179 to 181 °C

Molecule: COc1ccc(CC(=O)O)c(Cl)c1
Measured Attribute: melting point
Endpoint Result: 118 to 120 °C

Molecule: CS(=O)(=O)Cc1cccc(N)c1
Measured Attribute: melting point
Endpoint Result: 121 to 123 °C

Molecule: Cc1nc(C(=O)O)ccc1C#N
Measured Attribute: melting point
Endpoint Result: 150 to 152 °C

Molecule: Oc1ccc(CN2CCCC2)c2cccnc12
Measured Attribute: melting point
Endpoint Result: 112 to 114 °C

Molecule: COc1ccc(CNC(=O)C(C)Cl)cc1OC (configuration not stated)
Measured Attribute: melting point
Endpoint Result: 97 to 99 °C

Molecule: COCCOc1ccc(C(F)(F)F)cc1N
Measured Attribute: melting point
Endpoint Result: 43 to 47 °C

Molecule: COc1ccc(/C=N/OCC(=O)O)cc1
Measured Attribute: melting point
Endpoint Result: 101 to 103 °C

Molecule: Cc1cc(Cl)n2ncnc2n1
Measured Attribute: melting point
Endpoint Result: 220 to 222 °C

Molecule: Cc1sc(NC(=O)CCl)c(C#N)c1C
Measured Attribute: melting point
Endpoint Result: 180 to 182 °C

Molecule: CC(=O)Oc1cccc(C(=O)O)c1
Measured Attribute: melting point
Endpoint Result: 131 to 134 °C

Molecule: O=C(Nc1cccc(Cl)c1)OCC(F)(F)F
Measured Attribute: melting point
Endpoint Result: 35 to 37 °C

Molecule: NC(=NOC(=O)CCCCl)c1cccs1
Measured Attribute: melting point
Endpoint Result: 144 to 146 °C

Molecule: O=C(O)C1CNCc2ccccc21 (configuration not stated)
Measured Attribute: melting point
Endpoint Result: 233 to 235 °C
